details: in acetonitrile, 308.15 K
value.type: solubility (mole fraction)
Reply with just the number.

Query: Give its solubility (mole fraction) value. Item: CN(C)NC(=O)CCC(=O)O
Response: 0.000653

* * *

details: in 2-methoxyethanol, 313.15 K
value.type: solubility (mole fraction)

Query: Give its solubility (mole fraction) value. Item: CN(C)NC(=O)CCC(=O)O
Response: 0.014

* * *

details: in n-pentanol, 283.15 K
value.type: solubility (mole fraction)
Reply with just the number.

Query: Give its solubility (mole fraction) value. Item: CN(C)NC(=O)CCC(=O)O
Response: 0.000149

* * *

settings: in DMF, 283.15 K
value.type: solubility (mole fraction)
Reply with just the number.

Query: Give its solubility (mole fraction) value. Item: CN(C)NC(=O)CCC(=O)O
Response: 0.0207
